- tested.system: human RORgT (Homo sapiens)
- Sequence (P51449 267-516): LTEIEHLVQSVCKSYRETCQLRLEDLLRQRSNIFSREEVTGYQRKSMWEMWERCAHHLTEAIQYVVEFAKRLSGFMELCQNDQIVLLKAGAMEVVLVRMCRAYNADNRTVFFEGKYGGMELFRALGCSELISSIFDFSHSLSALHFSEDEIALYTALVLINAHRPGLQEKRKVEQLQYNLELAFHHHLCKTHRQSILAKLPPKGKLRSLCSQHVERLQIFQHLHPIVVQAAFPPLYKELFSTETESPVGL
- assay.procedure: RORgT Gal4 Luciferase Reporter Gene Assay
- study.conditions: engineered Jurkat cells overexpressing RORgT (LBD or full length) fused with Gal4 Luc reporter; 18 hours at 37° C.; luminescence
Quick list: EC50 per entry.
readout.kind: EC50 (nM)

[
  {
    "structure": "CC(=O)N1CCN(C(=O)N2CC[C@@]3(S(=O)(=O)c4ccccc4)c4ccc(OCc5c(Cl)cccc5Cl)cc4CC[C@@H]23)CC1",
    "tested.system": "human RORgT (Homo sapiens)",
    "readout.kind": "EC50",
    "val": 15
  },
  {
    "structure": "O=C(C1CCS(=O)(=O)CC1)N1CC[C@@]2(S(=O)(=O)c3ccccc3)c3ccc(OCc4ccccc4Cl)cc3CC[C@@H]12",
    "tested.system": "human RORgT (Homo sapiens)",
    "readout.kind": "EC50",
    "val": 12
  },
  {
    "structure": "Cc1ccccc1Oc1ccc2c(c1)CC[C@H]1N(C(=O)C3(C)CCS(=O)(=O)CC3)CC[C@@]21S(=O)(=O)c1ccc(F)cc1",
    "tested.system": "human RORgT (Homo sapiens)",
    "readout.kind": "EC50",
    "val": 7.5
  },
  {
    "structure": "O=C(C1CCS(=O)(=O)CC1)N1CC[C@@]2(S(=O)(=O)c3ccc(F)cc3)c3ccc(Cc4ccc(Cl)cc4)cc3CC[C@@H]12",
    "tested.system": "human RORgT (Homo sapiens)",
    "readout.kind": "EC50",
    "val": 1.8
  },
  {
    "structure": "O=C(O)[C@H]1CC[C@H](C(=O)N2CC[C@@]3(S(=O)(=O)c4ccc(F)cc4)c4ccc(OCc5ccc(F)cc5Cl)cc4CC[C@@H]23)CC1",
    "tested.system": "human RORgT (Homo sapiens)",
    "readout.kind": "EC50",
    "val": 46
  },
  {
    "structure": "O=C(O)[C@H]1CC[C@H](C(=O)N2CC[C@@]3(S(=O)(=O)c4ccc(Cl)cc4)c4ccc(OCc5c(F)cccc5C(F)(F)F)cc4CC[C@@H]23)CC1",
    "tested.system": "human RORgT (Homo sapiens)",
    "readout.kind": "EC50",
    "val": 2.7
  }
]

---

- tested.system: human RORgT (Homo sapiens)
- assay.procedure: RORgT Gal4 Luciferase Reporter Gene Assay
- study.conditions: engineered Jurkat cells overexpressing RORgT (LBD or full length) fused with Gal4 Luc reporter; 18 hours at 37° C.; luminescence

[
  {
    "molecule": "O=C(O)[C@H]1CC[C@H](C(=O)N2CC[C@@]3(S(=O)(=O)c4ccc(F)cc4)c4ccc(Cc5c(F)cccc5Cl)cc4CC[C@@H]23)CC1",
    "EC50": "7.1 nM"
  },
  {
    "molecule": "O=C1CC[C@@H](C(=O)N2CC[C@@]3(S(=O)(=O)c4ccc(F)cc4)c4ccc(OCc5c(F)cccc5C(F)(F)F)cc4CC[C@@H]23)N1Cc1ccc(F)cc1",
    "EC50": "8.2 nM"
  },
  {
    "molecule": "C[C@@H]1C[C@@H](C(=O)O)CC[C@@H]1C(=O)N1CC[C@@]2(S(=O)(=O)c3ccc(F)cc3)c3ccc(OCc4c(F)cccc4C(F)(F)F)cc3CC[C@@H]12",
    "EC50": "27 nM"
  },
  {
    "molecule": "CS(=O)(=O)N1CCC(C(=O)N2CC[C@@]3(S(=O)(=O)c4ccc(F)cc4)c4ccc(OCc5cc(F)ccc5Cl)cc4CC[C@@H]23)CC1",
    "EC50": "18 nM"
  },
  {
    "molecule": "NS(=O)(=O)CC(=O)N1CC[C@@]2(S(=O)(=O)c3ccc(F)cc3)c3ccc(OCc4cc(F)c(F)cc4Cl)cc3CC[C@@H]12",
    "EC50": "110 nM"
  },
  {
    "molecule": "NC(=O)N1CCC(C(=O)N2CC[C@@]3(S(=O)(=O)c4ccc(F)cc4)c4ccc(OCc5cc(F)c(F)cc5Cl)cc4CC[C@@H]23)CC1",
    "EC50": "9.9 nM"
  },
  {
    "molecule": "NS(=O)(=O)CC(=O)N1CC[C@@]2(S(=O)(=O)c3ccc(F)cc3)c3ccc(OCc4c(Cl)cccc4Cl)cc3CC[C@@H]12",
    "EC50": "127 nM"
  },
  {
    "molecule": "O=C(CC1CCS(=O)(=O)C1)N1CC[C@@]2(S(=O)(=O)c3ccc(F)cc3)c3ccc(OCc4c(F)cccc4Cl)cc3CC[C@@H]12 (stereo partly drawn)",
    "EC50": "3.8 nM"
  },
  {
    "molecule": "O=C(C1CCS(=O)(=O)CC1)N1CC[C@@]2(S(=O)(=O)c3ccc(F)cc3)c3ccc(Oc4cccnc4F)cc3CC[C@@H]12",
    "EC50": "7.1 nM"
  },
  {
    "molecule": "O=C(O)[C@H]1CC[C@H](C(=O)N2CC[C@@]3(S(=O)(=O)c4ccc(F)cc4)c4ccc(Sc5c(Cl)cccc5Cl)cc4CC[C@@H]23)CC1",
    "EC50": "1.4 nM"
  },
  {
    "molecule": "CC(C#N)CN1C(=O)CC[C@H]1C(=O)N1CC[C@@]2(S(=O)(=O)c3ccc(F)cc3)c3ccc(OCc4c(F)cccc4C(F)(F)F)cc3CC[C@@H]12 (stereo partly drawn)",
    "EC50": "3.6 nM"
  },
  {
    "molecule": "O=C(C1CCS(=O)(=O)CC1)N1CC[C@@]2(S(=O)(=O)c3ccc(F)cc3)c3ccc(OCc4cc(Cl)ccc4Cl)cc3CC[C@@H]12",
    "EC50": "7.5 nM"
  }
]
